Molecular target: recombinant small latent TGF-β
Assay: cell-based or functional assay
Fold Activation of Latent TGF-β over Baseline (soft agar NRK colony formation) overview
Lab book: enter the figure in fold over baseline, no units written.

Here's what some known entries look like.
• HRFK [HRFK (SEQ ID NO:6)] = 2
• KKFK [KKFK (SEQ ID NO:32)] = 2.2

Reported Fold Activation of Latent TGF-β over Baseline (soft agar NRK colony formation) of KRFK [KRFK (SEQ ID NO:5)] : 2

Reported Fold Activation of Latent TGF-β over Baseline (soft agar NRK colony formation) of QRFK [QRFK (SEQ ID NO:8)] : 2
